# Test system: VDR:RXRa (NR concentration 270 nM, RXRa partner concentration 90 nM)
# Experimental Details: PBM binding z-score (relative to random genomic background probes); higher = stronger binding; sequences stand for … in GC…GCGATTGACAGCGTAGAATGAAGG
Tag: Condition met if measured PBM binding z-score is not below 4, Condition not met if it is.

>  <Residue String>
CAAACTAGGTCACAGAGGGCAAAGTCCGTGCGTA

>  <Experimental System>
VDR:RXRa (NR concentration 270 nM, RXRa partner concentration 90 nM)

>  <Class Label>
Condition met

$$$$
>  <Residue String>
CGAACTAGCTCAAGGACAGTGAATCTCCGCACGC

>  <Experimental System>
VDR:RXRa (NR concentration 270 nM, RXRa partner concentration 90 nM)

>  <Class Label>
Condition not met

$$$$
>  <Residue String>
CAAAATAGGTCAAGAGGTCAAAGTCCGCTTCCCG

>  <Experimental System>
VDR:RXRa (NR concentration 270 nM, RXRa partner concentration 90 nM)

>  <Class Label>
Condition met

$$$$
>  <Residue String>
TCTAGTTGGTTACGGAGGTCACACACGACGGGTA

>  <Experimental System>
VDR:RXRa (NR concentration 270 nM, RXRa partner concentration 90 nM)

>  <Class Label>
Condition met

$$$$
>  <Residue String>
CTATGTAGGTTAAGAGGGTCATTCAGTTTGAAAG

>  <Experimental System>
VDR:RXRa (NR concentration 270 nM, RXRa partner concentration 90 nM)

>  <Class Label>
Condition met

$$$$
>  <Residue String>
TCGAGTAGGTTACAGGGGCATTCAGGGATGAAGA

>  <Experimental System>
VDR:RXRa (NR concentration 270 nM, RXRa partner concentration 90 nM)

>  <Class Label>
Condition not met

$$$$
>  <Residue String>
CTGAGTAGGTTACGAGGGGGCATTCAGTGCGAAT

>  <Experimental System>
VDR:RXRa (NR concentration 270 nM, RXRa partner concentration 90 nM)

>  <Class Label>
Condition met

$$$$
>  <Residue String>
ATCGAAGGGTCGAAGGTGAGTATACCCACCCGAA

>  <Experimental System>
VDR:RXRa (NR concentration 270 nM, RXRa partner concentration 90 nM)

>  <Class Label>
Condition not met

$$$$
>  <Residue String>
CCAGACAGGTGAAAGGTAACTCACTCTGGTACGC

>  <Experimental System>
VDR:RXRa (NR concentration 270 nM, RXRa partner concentration 90 nM)

>  <Class Label>
Condition not met

$$$$
>  <Residue String>
CGAACTAGGTCAAAGAACAGTGAAAGGCGACGTA

>  <Experimental System>
VDR:RXRa (NR concentration 270 nM, RXRa partner concentration 90 nM)

>  <Class Label>
Condition not met

$$$$
>  <Residue String>
ATATGTAGGTTAGTGTCATTCAGAAAGTAGGGAA

>  <Experimental System>
VDR:RXRa (NR concentration 270 nM, RXRa partner concentration 90 nM)

>  <Class Label>
Condition not met

$$$$
>  <Residue String>
GATTACGGGTCAAAGGTTATAGCATGAATAGAAT

>  <Experimental System>
VDR:RXRa (NR concentration 270 nM, RXRa partner concentration 90 nM)

>  <Class Label>
Condition met

$$$$
>  <Residue String>
TCGAGTAGGTTACGTGGGCATTCAGGGATGAAGA

>  <Experimental System>
VDR:RXRa (NR concentration 270 nM, RXRa partner concentration 90 nM)

>  <Class Label>
Condition not met

$$$$
>  <Residue String>
CCGACTAGGTTACGAGGGGGCATTCAGTGCGAAT

>  <Experimental System>
VDR:RXRa (NR concentration 270 nM, RXRa partner concentration 90 nM)

>  <Class Label>
Condition met

$$$$
>  <Residue String>
GATACAGGGTCATCTAGAGGCCAGAGTATGGAAA

>  <Experimental System>
VDR:RXRa (NR concentration 270 nM, RXRa partner concentration 90 nM)

>  <Class Label>
Condition met

$$$$
>  <Residue String>
ATATGTAGGTTAGGGTCATTCCGAAAGTAGGGAA

>  <Experimental System>
VDR:RXRa (NR concentration 270 nM, RXRa partner concentration 90 nM)

>  <Class Label>
Condition met

$$$$
>  <Residue String>
CCAACTAGGTCATTGACAGGACAGTGAATAGTAA

>  <Experimental System>
VDR:RXRa (NR concentration 270 nM, RXRa partner concentration 90 nM)

>  <Class Label>
Condition not met

$$$$
>  <Residue String>
GCTGCTAGGTCAACTGATGGTGAGCTAAAGCTCG

>  <Experimental System>
VDR:RXRa (NR concentration 270 nM, RXRa partner concentration 90 nM)

>  <Class Label>
Condition not met

$$$$

* * *

# Test system: PPARa:RXRa (NR concentration 270 nM, RXRa partner concentration 90 nM)
# Experimental Details: PBM binding z-score (relative to random genomic background probes); higher = stronger binding; sequences stand for … in GC…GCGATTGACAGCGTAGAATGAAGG
Catalogue of PBM binding z-score readings, one per entry.

>  <Residue String>
CTCTGTAGGTTAAGGGGGTCATTCAGTTTGAAAG

>  <PBM binding z-score>
5.68

$$$$
>  <Residue String>
ATCGAATGGTCGTGAGGTGAGTATACAGAAAGGC

>  <PBM binding z-score>
-0.301

$$$$
>  <Residue String>
GCTGCTAGGTCATGTTGGTCAGCTAACGGGTACG

>  <PBM binding z-score>
3.03

$$$$
>  <Residue String>
ATGTGTAGGTTACATCCGGGTCATTCAGGCTATG

>  <PBM binding z-score>
3.45

$$$$
>  <Residue String>
ATCGAAAGGTCGTGACGTGAGTATACAGAAAGGC

>  <PBM binding z-score>
4.8

$$$$
>  <Residue String>
CGTCCAAGGTAAATGCTAGGTCAGTGAAAGCATT

>  <PBM binding z-score>
0.673

$$$$
>  <Residue String>
CAAACTAGGTCACAGAGGTCAACGTCCGTGCGTA

>  <PBM binding z-score>
6.75

$$$$
>  <Residue String>
CGTTCAAGGTCATAGGAGGTCAGTGAAGACAGAT

>  <PBM binding z-score>
6.19

$$$$
>  <Residue String>
CGAACTAGTTCACCAGGACAGTGAAGAGGTTGGA

>  <PBM binding z-score>
0.836

$$$$
>  <Residue String>
ATATGTAGGTTAGGGTCATTCAGAAAGTAGGGAA

>  <PBM binding z-score>
5.61

$$$$
>  <Residue String>
CCGAGTAGGTTAAGAGGGGGCATTCAGTGCGAAT

>  <PBM binding z-score>
3.21

$$$$
>  <Residue String>
CAAGCTAGGTCAAAGGTCAAAGTCGAGCCAACCA

>  <PBM binding z-score>
7.38

$$$$
>  <Residue String>
ATCTCTAGGTAAAGGTCAGTGAAAGATCGATAGA

>  <PBM binding z-score>
4.32

$$$$
>  <Residue String>
TAGCCTAGGTCATGGGCCTGTATACCACGCGAAC

>  <PBM binding z-score>
4.12

$$$$

* * *

Catalogue of PBM binding z-score readings, one per entry.
# Tested on: RARb:RXRa (NR concentration 270 nM, RXRa partner concentration 90 nM)
# Experimental Details: PBM binding z-score (relative to random genomic background probes); higher = stronger binding; sequences stand for … in GC…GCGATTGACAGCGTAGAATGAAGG

>  <Residue String>
GATACAGGGGCAAGGCCAGAGTACGCGTATTGAT

>  <PBM binding z-score>
1.65

$$$$
>  <Residue String>
CCGAGTAGGTTACGAGGGGGCATTCATTGCGAAT

>  <PBM binding z-score>
1.94

$$$$
>  <Residue String>
CTATGTAGGTTAAGGGTGTCATTCAGTTTGAAAG

>  <PBM binding z-score>
1.56

$$$$
>  <Residue String>
AGTCAAAGTTCAGCACGAGGTAACGTAAAGCACG

>  <PBM binding z-score>
4.66

$$$$
>  <Residue String>
CCGAGTAGGTTACGCGGGGGCATTCAGTGCGAAT

>  <PBM binding z-score>
2.29

$$$$
>  <Residue String>
AGTCAAAGTTCACTAGGTTACGTAAGATTCAGCT

>  <PBM binding z-score>
4.93

$$$$
>  <Residue String>
TAGCCTAGGTCATGGGCCAGTTTACCACGCGAAC

>  <PBM binding z-score>
3.82

$$$$
>  <Residue String>
CCTACTGGGCCATTCAGAGGTCACTGATCATATG

>  <PBM binding z-score>
3.37

$$$$
>  <Residue String>
CTATGTAGCTTAAGGGGGTCATTCAGTTTGAAAG

>  <PBM binding z-score>
3.33

$$$$
>  <Residue String>
CGTCAAAGTTCAACTAATGTAACGTAAAGCACGC

>  <PBM binding z-score>
5.23

$$$$
>  <Residue String>
GGTACGAGGGCAAAGTTGATAGCATCTGTCGACG

>  <PBM binding z-score>
2.33

$$$$
>  <Residue String>
CCTTACGGGTCACTCTAGGTTATAGCATCGGAGT

>  <PBM binding z-score>
3.68

$$$$
>  <Residue String>
GCTTACGGGTCAAAGGTTAAAGCATGAATAGAAT

>  <PBM binding z-score>
4.94

$$$$
>  <Residue String>
AGAATGAGGTTACCAGAGATCAGGGAAACGCTTG

>  <PBM binding z-score>
2.15

$$$$
>  <Residue String>
CCTAGTGGGTCAGGAGGTCACACACCGGATATGA

>  <PBM binding z-score>
4.42

$$$$
>  <Residue String>
ATATGTAGGTTAGCTGGCGTCATTCAGACTAGGC

>  <PBM binding z-score>
0.462

$$$$
>  <Residue String>
CCTACTGGGCCAAAACGGTCATTGATGCCGATAA

>  <PBM binding z-score>
0.875

$$$$

The measurements presented in this section are drawn from the supplement of paper PMC6555819.
